# System name: T1, human alpha2-Antiplasmin (human, UniProt P08697 40-491)
# T1 sequence: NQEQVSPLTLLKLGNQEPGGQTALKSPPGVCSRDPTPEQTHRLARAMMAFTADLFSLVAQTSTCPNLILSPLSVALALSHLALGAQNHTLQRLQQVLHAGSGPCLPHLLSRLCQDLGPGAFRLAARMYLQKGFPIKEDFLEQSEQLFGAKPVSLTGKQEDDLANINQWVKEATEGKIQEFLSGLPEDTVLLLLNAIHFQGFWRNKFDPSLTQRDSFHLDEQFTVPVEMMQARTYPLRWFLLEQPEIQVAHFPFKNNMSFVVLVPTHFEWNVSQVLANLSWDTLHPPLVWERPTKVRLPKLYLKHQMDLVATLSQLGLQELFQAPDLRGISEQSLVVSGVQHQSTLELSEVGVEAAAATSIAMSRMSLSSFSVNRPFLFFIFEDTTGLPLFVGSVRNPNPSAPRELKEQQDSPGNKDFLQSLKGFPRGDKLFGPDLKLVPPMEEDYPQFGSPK
# Assay overview: cell-based or functional assay
Measurement type: function blocking activity [IC50 M], 1st exp. (pM)
Write down the numeric answer in pM and omit the unit.

Please review the following examples before continuing.
Binder	Test result
TPP-17051 hIgG1 (antibody, V domains shown, Germline variant of TPP-14308) VH: EVQLLESGGGLVQPGGSLRLSCAASGFTFDSYAMSWVRQAPGKGLEWVSAIGTGGSTYYADSVKGRFTISRDNSKNTLYLQMNSLRAEDTAVYYCAREGYDSSGYYHLDYWGQGTLVTVSS VL: QSVLTQPPSASGTPGQRVTISCTGSSSNIGATYDVHWYQQLPGTAPKLLIYSNNQRPSGVPDRFSGSKSGTSASLAISGLRSEDEADYYCAAWDWSLSGWVFGGGTKLTVLG	330
TPP-17045 hIgG1 (antibody, V domains shown, Germline variant of TPP-14308) VH: EVQLLESGGGLVQPGGSLRLSCAASGFTFDDYAMSWVRQAPGKGLEWVSAIGTGGGTYYADSVKGRFTISRDNSKNTLYLQMNSLRAEDTAVYYCAKEGYDSSGYYHLDYWGQGTLVTVSS VL: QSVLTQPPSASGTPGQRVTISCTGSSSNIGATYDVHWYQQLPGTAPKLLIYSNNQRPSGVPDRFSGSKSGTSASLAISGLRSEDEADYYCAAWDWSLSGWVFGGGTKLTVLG	400
TPP-17048 hIgG1 (antibody, V domains shown, Germline variant of TPP-14308) VH: EVQLLESGGGLVQPGGSLRLSCAASGFTFSDYAMSWVRQAPGKGLEWVSAIGTGGSTYYADSVKGRFTISRDNSKNTLYLQMNSLRAEDTAVYYCAREGYDSSGYYHLDYWGQGTLVTVSS VL: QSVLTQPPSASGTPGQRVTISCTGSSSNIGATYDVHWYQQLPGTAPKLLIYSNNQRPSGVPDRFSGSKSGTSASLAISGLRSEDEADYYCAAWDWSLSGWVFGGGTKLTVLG	280
TPP-17053 hIgG1 (antibody, V domains shown, Germline variant of TPP-14308) VH: EVQLLESGGGLVQPGGSLRLSCAASGFTFDDYAMSWVRQAPGKGLEWVSAIGSGGSTYYADSVKGRFTISRDNSKNTLYLQMNSLRAEDTAVYYCAREGYDSSGYYHLDYWGQGTLVTVSS VL: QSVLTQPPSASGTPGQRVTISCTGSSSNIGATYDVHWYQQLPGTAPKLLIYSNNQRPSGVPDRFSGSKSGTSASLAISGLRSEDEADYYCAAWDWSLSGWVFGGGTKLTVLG	430

// moving on: another record for function blocking activity [IC50 M], 1st exp.
Report function blocking activity [IC50 M], 1st exp. for TPP-17041 hIgG1 (antibody, V domains shown, Germline variant of TPP-14308) VH: EVQLLESGGGLVQPGGSLRLSCAASGFTFSDYAMSWVRQAPGKGLEWVSAIGTGGGTYYADSVKGRFTISRDNSKNTLYLQMNSLRAEDTAVYYCAREGYDSSGYYHLDYWGQGTLVTVSS VL: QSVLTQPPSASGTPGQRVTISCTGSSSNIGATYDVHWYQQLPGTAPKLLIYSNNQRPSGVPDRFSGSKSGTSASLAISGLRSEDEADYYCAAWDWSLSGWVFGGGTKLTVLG please.
560
